Target: Receptor-binding domain (RBD) of the SARS-CoV-2 spike protein, WA01/2020 strain (SARS-CoV-2, WA01/2020 strain, UniProt P0DTC2 319-541)
Assay: dose-response ELISA on coated antigen
pEC50: −log10 of the molar value.
measure-name: pEC50

INSERT INTO measurements (binder, measured_value) VALUES
  ('antibody 2729 (antibody, V domains shown) VH: QVTLKESGPVLVKPTETLTLTCTVSGFSLSNARMGVSWIRQPPGKALEWLAHIFSNDEKSYSTYLKSRLTISKDSSKSQVVLTMTIMDPVDTATYYCARTAGRYSSRWGHYYYYMDVWGKGTTVTVSS VL: NFMLTQPHSVSESPGKTVTISCTGSNGSIASNFMQWYQQRPGSAPTIVIYEDNQRPSGVPDRFSGSIDGSSNSASLTISGLKTEDEADYYCQSYDSSDSDLGVFGGGTKLTVL', 10.43),
  ('antibody 2075 (antibody, V domains shown) VH: QVQLVQSGAEVKKPGSSVKVSCTASGGTFSIYAFSWVRQAPGQGLEWMGGIIPISGTAGYAQKFQGRVTITADESTSTAYMELSSLRSEDTAIYYCARKYRYCSGSRCYTYFDYWGQGTLVTVSS VL: DIQMTQSPSSLSASVGDRVTITCRASQSISSFLNWYQQKPGKAPKLLIYAASSLQSGVPSRFSGSGSGTDFTLTISSLQPEDSATYYCQQSYSTITFGQGTRLEIK', 10.14),
  ('antibody 2050 (antibody, V domains shown) VH: QVQLVQSGAEVKKPGASVKVPCKVSGYTFTDHFIHWVRQAPGQGLEWMGWISPNSGGRNYTQKFQGRVTLTRDTAITTVHMDLSSLTPDDTAVYYCARDVRWAQLQGGFDLWGQGTMVTVSS VL: QSALTQPASVSGSPGQSITISCTGTSSDVGSYNLVSWYQQHPGKAPKLMIYEVSKRPSGVSNRFSGSKSGNTASLTISGLQADDEADYYCCSYAGDNNFLFGGGTSLTVL', 10.60),
  ('antibody 1589 (antibody, V domains shown) VH: EVQLVESGGGLIQVGGSLRLSCAASGLTVTSNYMNWVRQGPGKGLEWVSLIYSGGTTYYADSVKGRFTISRDDSKNTLYLQMNSLRAEDTAVYYCARPIVGARSGMDVWGQGTAVTVSS VL: DIQMTQSPSSLSASVGDRVTITCQASQDINKYLNWYQQKPGKAPKLLIYDASNLETGVPSRFSGSGSGTDFTFTISSLQPEDLATYYCHQFDNLPGTFGGGTKVEIK', 10.44),
  ('antibody 2020 (antibody, V domains shown) VH: QVQLVQSGAEVKKPGASVKVSCKASGYTFTDYFMHWVRQAPGQGLEWMGWVNPLSGGTNFAQKFQGRVTMTSDTSITTVYMELSRLRSDDTAVYYCARDPPLYSSTYGMDVWGQGTTVTVSS VL: QSALTQPASVSGSPGQSITISCTGTSSDVGAYNYVSWYQQHPGKAPKLMIYDVSDRPSGVSNRFSGSKSGNTASLTISGLQAEDEADYYCSSYTISSSVVFGGGTKLTVL', 10.06),
  ('antibody 2794 (antibody, V domains shown) VH: QVQLVQSGAEVKKPGSSLKVSCKASGGTFNNFAISWVRQAPGQGPEWMGRINPILSAAKYAQKFQGRLTITADKSTTTAYMELSSLRSEDTAVYYCAPTGTGESWWFDPWGQGTLVTVSS VL: QSVLTQPPSASGTPGQRVTISCSGSSSNIGTNYVYWYQQLPGTAPKVLIYGNNQRPSGVPDRFSGSKSGSSASLAISGLRSEDEADYYCAAWDDSLSGPVFGGGTKLTVL', 10.66),
  ('antibody 935 (antibody, V domains shown) VH: EVQLVESGGGLVQPGGSLRLSCAASGFTVSSNYMSWVRQAPGKGLEWVSVIYSGGSTFYADSVKGRFTISRDNSRNTLYLQMNSLRAEDTAVYYCARDWGEFFFDFWGQGALVTVSS VL: EIVLTQSPGTLSLSPGERATLSCRASQTISSSYLAWYQQKPGQAPRLLISGASSRATGIPDRFSGSGSGTDFTLTISRLEPEDFAVYYCQQYGSSPRTFGQGTNVEIK', 10.62),
  ('antibody 3091 (antibody, V domains shown) VH: QMQLVQSGPEVKKPGTSVKVSCKASGFTFSSSAVQWVRQARGQGLEWIGWIVVGSGNANYAQKLQERVSITRDMSTSTAYMELSSLRPEDTAVYYCAAPHCSRTICHDGFDMWGQGTMVTVSS VL: EIVLTQSPGTLSLSPGERATLSCRASQSVRSSYLAWYQQKPGQAPRLLMFVASSRATGIPDRFSGSGSGTDFTLTISRLEPEDFAVYYCQQYDTSPWTFGQGTKVEIK', 10.52),
  ('antibody 4042 (antibody, V domains shown) VH: QITLKESGPTLVKPTQTLTLTCTFSGFSLSSGGVGVGWIRQPPGKALEWLALIYWDDDKRYRPSLKSRLTITRDTSTNQVVLTMTNMDPVDTATYFCARHQIATVFDHWGQGTLVTVSS VL: QSALTQPASVSGSPGQSITISCTGTSSDVGGYNYVSWYQQHPGKAPKLMIYEVSNRPSGVSSRFSGSKSGNTASLTISGLQAEDEADYYCSSYTRSSPLVAFGGGTKVTVL', 10.68),
  ('antibody 3086 (antibody, V domains shown) VH: QVQLQESGPGLVKPSETLSLTCTVSGGSISGHYWSWIRQPPGKGLEWIGYIYYSGSTNYNPSLKSRVTISVDTSVNQFSLKLSSVTAADTAVYYCARQEARDAVGNYFFDSWGQGTLVTVSS VL: QSALTQPASVSGSPGQSITISCSGTSSDIGSYDLVSWYQQHPGKAPKLLIYDVTKRPSGVSHRFSGSKSGNTASLTISGLQGEDEADYYCCSYVHFSTWVFGGGTKLTVL', 10.52);
